Recorded activity at 3 µM for the following compounds
tested on: P. berghei-ANKA-GFP-LucCON liver stage parasites in HepG2-A16-CD81EGFP cells; test: P. berghei liver stage Pb-Luc assay, Method 1 (UCSD, 1536-well); type: cell-based, Plasmodium berghei; details: Plasmodium berghei, 48 h, 3 uM (compounds provided at 10 mM); average of 2 wells on a 1536 well plate; column 9; read-out: Pb-Luc (P. berghei liver stage), % of control, higher concentration, second repeat
Please state the figure in %; there is no need to write the unit.

Worked examples, 3 compounds total:
Ask: Entry "CC(C)COc1ccc(C(=O)N/C(=C\c2cccc([N+](=O)[O-])c2)C(=O)OC(C)C)cc1" : reported activity at 3 µM = ?
Reply: 69

Ask: Can you look up the measured activity at 3 µM of "C=C(C)COc1ccc(-c2ncnc(C(F)(F)F)c2-c2ccc(OC)cc2)c(O)c1" for me?
Reply: 99

Ask: Can you share its activity at 3 µM? I mean this compound: "CCCN(CCC)c1nc(-c2ccccn2)nc2ccccc12"
Reply: 7

In the following, a different compound is considered.
Ask: State the recorded activity at 3 µM for this entry: "CCCOc1ccc(CCc2nnc(S)n2Cc2ccccc2)cc1"
Reply: 162

Values were extracted from paper PMC7822874.
